Each recorded value in this set is attributed to ChEMBL document CHEMBL5518227.

- procedureText: Cytotoxicity against african green monkey Vero cells by ATPlite cell viability luminescence assay
- Assay type: toxicity, cell-based
- measurementParameters: chlorocebus sabaeus
measureName: CC50 (nM)
Report only the number, with the unit nM understood.

Asked: What value of CC50 has been reported for the following molecule? `COc1cc(N[C@H](C(=O)c2c[nH]c3ccc(OC(F)(F)F)cc23)c2ccc(Cl)cc2OC)cc(S(C)(=O)=O)c1`
Given back: 2600

====

Kindly state microsomal CLint for each of the entries shown.
- procedureText: Metabolic stability in mouse liver microsomes assessed as intrinsic clearance preincubated for 5 mins followed by NADPH addition measured upto 60 mins by LC-MS/MS analysis
- Assay type: ADME, Microsome
- measurementParameters: time < 65 min, read-out: CLH
Dear colleague, please send the value followed by its unit.

Asked: What value of microsomal CLint has been reported for the following compound? COc1cc(NC(C(=O)c2c[nH]c3ccccc23)c2ccc(F)cc2)cc(S(C)(=O)=O)c1 (centres undefined)
Given back: 48 µL/min/mg

Asked: Now consider COc1cc(NC(C(=O)c2c[nH]c3ccccc23)c2ccc(F)cc2)cc(OCCO)c1 (centres undefined) and answer again.
Given back: 94 µL/min/mg

Asked: Now consider COc1cc(NC(C(=O)c2c[nH]c3ccccc23)c2ccc(F)cc2OC)cc(OCCO)c1 (single isomer, unassigned; (+)) and answer again.
Given back: 190 µL/min/mg

Asked: Now consider COc1cc(NC(C(=O)c2c[nH]c3ccccc23)c2ccc(F)cc2OC)cc(S(C)(=O)=O)c1 (single isomer, unassigned; (+)) and answer again.
Given back: 27 µL/min/mg

====

- Test system: mouse P-gp
- procedureText: Apparent permeability across apical to basolateral side in pig LLC-PK1 cells transfected with mouse P-gp at 1 uM measured upto 120 mins
- Assay type: ADME, cell-based, Sus scrofa
measureName: Papp A→B at 2 h, 1 µM (×10⁻⁶ cm/s)
Report only the number, with the unit ×10⁻⁶ cm/s understood.

Asked: What value of Papp A→B at 2 h, 1 µM has been reported for the following molecule? `COc1cc(N[C@H](C(=O)c2c[nH]c3ccc(OC(F)(F)F)cc23)c2ccc(Cl)cc2OC)cc(S(C)(=O)=O)c1`
Given back: 1

====

- procedureText: Cmax in Sprague-Dawley rat at 10 mg/kg, po measured after 24 to 48 hrs by LC-MS/MS analysis
- Format: ADME, organism-based
- measurementParameters: in vivo, time 24-48 hrs
Kindly state Cmax for each of the entries shown.
Report only the number, with the unit ng/mL understood.

Asked: What value of Cmax has been reported for the following compound? COc1cc(NC(C(=O)c2c[nH]c3cc(OC)c(C)cc23)c2ccc(F)cc2OCCO)cc(S(C)(=O)=O)c1 (single isomer, unassigned; (+))
Given back: 94

Asked: Now consider COc1cc(NC(C(=O)c2c[nH]c3cc(OC)c(C)cc23)c2ccc(Cl)cc2OC)cc(S(C)(=O)=O)c1 (stereo not drawn) and answer again.
Given back: 371

Asked: Now consider COc1cc(NC(C(=O)c2c[nH]c3cc(OC)c(C)cc23)c2ccc(Cl)cc2OCCO)cc(S(C)(=O)=O)c1 (single isomer, unassigned; (+)) and answer again.
Given back: 103

====

- procedureText: Metabolic stability in cynomolgus monkey hepatocytes assessed as intrinsic clearance measured per million cells incubated upto 120 mins by LC-MS/MS analysis
- Format: ADME, cell-based, Macaca fascicularis, Hepatocyte
- measurementParameters: read-out: CLH
measureName: hepatocyte CLint

Asked: What value of hepatocyte CLint has been reported for the following compound? `COc1cc(N[C@H](C(=O)c2c[nH]c3ccc(OC(F)(F)F)cc23)c2ccc(Cl)cc2OC)cc(S(C)(=O)=O)c1`
Given back: < 1.9 µL/min/1e6 cells
